system: T1, human podocalyxin (human, UniProt O00592 23-558)
T1 construct: also called hPodo; hPodocalyxin
T1 sequence: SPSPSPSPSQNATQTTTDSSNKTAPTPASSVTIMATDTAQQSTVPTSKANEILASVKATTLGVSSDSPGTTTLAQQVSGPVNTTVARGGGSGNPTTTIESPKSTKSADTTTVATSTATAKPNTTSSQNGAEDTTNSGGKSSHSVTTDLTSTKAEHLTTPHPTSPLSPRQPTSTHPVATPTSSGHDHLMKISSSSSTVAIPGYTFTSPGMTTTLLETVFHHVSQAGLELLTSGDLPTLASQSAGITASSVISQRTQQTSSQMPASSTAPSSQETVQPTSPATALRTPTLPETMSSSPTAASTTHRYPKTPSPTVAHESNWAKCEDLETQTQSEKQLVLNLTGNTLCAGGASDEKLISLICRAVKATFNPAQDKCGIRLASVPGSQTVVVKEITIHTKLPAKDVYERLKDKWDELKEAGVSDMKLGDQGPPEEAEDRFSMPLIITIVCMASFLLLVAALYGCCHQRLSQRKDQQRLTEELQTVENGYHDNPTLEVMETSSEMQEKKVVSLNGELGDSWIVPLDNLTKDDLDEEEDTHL
assay_method_text: flow cytometry, supernatant 2:15 (so in the source), hPodo/MDA-MB-231 transient transfectants
// reported flow cytometry fluorescence (name not given) for each item listed
Please state the value as a number alone, without comment.

huPodo 83 2:1 (humanized anti-podocalyxin antibody 83, version 2) (antibody, V domains shown, Cloned into pTT5 plasmids with human IgG heavy chain and human Ig kappa constant regions) VH: EVQLVESGGGLVQPGGSLRLSCAASGIDLSSYAMGWVRQAPGKGLEWVSFIYASGSIFYASWAKGRFTISRDNSNTLYLQMNSLRAEDTAVYYCARAGYYFGGNYDLNLWGQGTLVTVSS VL: DIQMTQSPSSLSASVGDRVTITCQASQSISNYLAWYQQKPGKVPKLLIYRASTLASGVPSRFSGSGSGTDFTLTISSLQPEDVATYYCQQGYVSNNLDNIFGGGTEVVVK ... 79400

Now look at this entry.
[Q] State its flow cytometry fluorescence (name not given) for this binder: huPodo 83 1:1 (humanized anti-podocalyxin antibody 83, version 1) (antibody, V domains shown, Cloned into pTT5 plasmids with human IgG heavy chain and human Ig kappa constant regions) VH: EVQLVESGGGLVQPGGSLRLSCAASGIDLSSYAMGWVRQAPGKGLEWVSFIYASGSIFYASWAKGRFTISRDNSKNTLYLQMNSLRAEDTAVYYCARAGYYFGGNYDLNLWGQGTLVTVSS VL: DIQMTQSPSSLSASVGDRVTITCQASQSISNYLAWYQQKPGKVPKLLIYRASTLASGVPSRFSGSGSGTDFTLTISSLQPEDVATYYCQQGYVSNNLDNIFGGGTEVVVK
[A] 157000
